The measurements presented in this section are drawn from PubChem BioAssay (NCI).

# Test system: COLO 205 colon
# experiment_notes: NCI-60 one-dose screen, 48 h
# condition_label: 10 µM unless noted
About 83,000 compounds went through this panel and 20% of them were active in at least one assay; those are over-represented in the sample as a whole. Activity calls are given as the source filed them. The calls were made as follows: active = growth percent below 10; inactive = the rest.
Labels: true (active), false (inactive)

- record_smiles: "CN(C)c1ccc2nc3ccc(=[N+](C)C)c([N+](=O)[O-])c-3sc2c1"
  cat: "false"
- record_smiles: "O=c1c2cc(F)ccc2sc2c(N3CCCCC3)nc3ccccc3c12"
  cat: "false"
- record_smiles: "CCCCOc1nc2ccc(OC)cc2cc1-c1cc(-c2ccc(Cl)cc2)nc(-c2ccc(Cl)cc2)c1"
  cat: "false"
- record_smiles: "C[C@]12CC[C@@H]3c4cc(OC(F)F)c(OS(N)(=O)=O)cc4CC[C@H]3[C@@H]1CC[C@@H]2OS(N)(=O)=O"
  cat: "false"
- record_smiles: "COc1cc(C(=O)c2cc(C)c3[nH]c4ccc(C)cc4c3c2C)cc(OC)c1OC"
  cat: "true"

---

# Test system: SK-MEL-5 melanoma
# experiment_notes: NCI-60 one-dose screen, 48 h
# condition_label: 10 µM unless noted
The panel holds about 83,000 compounds, 20% with a hit somewhere; the sample as a whole holds those more often. Calls of active or inactive are those of the source. How the source made its calls: active means growth percent below 10; inactive means the rest.
Labels: yes (active), no (inactive)

- compound: "COc1cccc(-c2nc(-c3ccc(NC(=O)C(C)C)cc3)[nH]c2-c2ccnc(Br)c2)c1"
  cat: "yes"
- compound: "Cc1ccccc1C(=O)NN"
  cat: "no"
- compound: "COc1ccc(/C=N/Nc2cc(=O)[nH]c3ccc(C)cc23)cc1"
  cat: "no"
- compound: "COc1ccccc1/C=C1\\Oc2cc(OCCN3CCC(Cc4ccccc4)CC3)ccc2C1=O"
  cat: "no"
- compound: "CCCCOc1nc2ccc(OC)cc2cc1-c1cc(-c2ccc(Cl)cc2)nc(-c2ccc(Cl)cc2)c1"
  cat: "no"
- compound: "COc1cc(C2CC(c3ccc(SC)cc3)=NN2C(C)=O)cc(OC)c1OC (configuration not stated)"
  cat: "no"
- compound: "NCCCNc1nc2ccccc2c2c(=O)c3cc(F)cc(F)c3sc12"
  cat: "no"
- compound: "Cc1[nH]c(C(=O)Nc2ccc(C(=O)NCCN)cc2OC(C)C)c(Cl)c1Cl"
  cat: "no"
- compound: "CCc1ccc2nc(NC(=O)Cc3csc(NC(=O)c4ccco4)n3)sc2c1"
  cat: "no"
- compound: "Cc1ccc(-c2nc(N3CCN(CC(=O)Nc4ccc(Cl)c(C(F)(F)F)c4)CC3)c3ccccc3n2)cc1"
  cat: "no"
- compound: "CSc1ncccc1C(=O)OCC(=O)Nc1oc(C)c2c(C)n[nH]c(=O)c12"
  cat: "no"
- compound: "COc1cccc(-c2nn(-c3ccccc3)cc2-c2ccnc(N3CCOCC3)c2)c1"
  cat: "no"
- compound: "Cc1cccc2c3c(sc12)C(c1ccc(Cl)cc1)C(C#N)=C(/N=C/c1ccc(Cl)cc1)O3 (configuration not stated)"
  cat: "no"
- compound: "CCOC(=O)Cn1c(=O)c2c(c3ccccc3n2C)n2nnc(-c3ccccc3)c12"
  cat: "no"
- compound: "c1cc(NCCc2ccncc2)nc(-n2cnc3ccccc32)c1"
  cat: "no"
- compound: "O=C(Nc1ccc(Cl)cc1F)c1ccccc1O"
  cat: "yes"
- compound: "COc1cccc(/C=C2\\C=C(c3ccccc3)N(Cc3ccccc3)C2=O)c1"
  cat: "no"
- compound: "CNc1nc2c(s1)C(c1cc(F)ccc1F)CC(=O)N2 (configuration not stated)"
  cat: "no"
- compound: "Oc1ccc(CCl)c2cccnc12"
  cat: "no"
- compound: "CSc1ccc2c(c1)c(CCN)c(C)n2Cc1ccc(Cl)c(Cl)c1"
  cat: "yes"
- compound: "CNCCCC12CCC(c3ccccc31)c1ccccc12"
  cat: "no"
- compound: "COc1cc(/C=C/c2ccccc2)cc(OC)c1"
  cat: "no"
